Biological target: FXR receptor (Homo sapiens)
Construct: expressed in transfected cells; host or cells: 293T cells
Sequence (Q96RI1 1-486): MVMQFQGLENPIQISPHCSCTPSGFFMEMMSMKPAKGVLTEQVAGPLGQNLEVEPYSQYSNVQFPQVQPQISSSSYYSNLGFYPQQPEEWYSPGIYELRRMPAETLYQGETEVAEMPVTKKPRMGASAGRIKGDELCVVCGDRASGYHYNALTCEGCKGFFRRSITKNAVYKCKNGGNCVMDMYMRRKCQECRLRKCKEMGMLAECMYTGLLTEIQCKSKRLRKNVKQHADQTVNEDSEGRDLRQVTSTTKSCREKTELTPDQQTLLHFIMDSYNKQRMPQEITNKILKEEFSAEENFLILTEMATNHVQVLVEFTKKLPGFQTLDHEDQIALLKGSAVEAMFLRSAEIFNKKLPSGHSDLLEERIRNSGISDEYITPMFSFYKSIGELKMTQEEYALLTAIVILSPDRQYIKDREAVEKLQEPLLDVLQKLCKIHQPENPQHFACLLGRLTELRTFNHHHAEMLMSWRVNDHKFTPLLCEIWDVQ
Assay: FXR activity at the cell level (FXRE luciferase reporter in 293T cells)
Assay type: cell-based
Conditions: 293T cells, FXRE luciferase reporter; read-out: EC50 (cell level)
pEC50: −log10 of the molar value.

[
  {
    "compound": "O=c1[nH]c(-c2cccc(N3CCC(OCc4c(-c5c(Cl)cccc5Cl)noc4C4CC4)CC3)c2)no1",
    "pEC50": 6.96
  },
  {
    "compound": "O=c1[nH]c(-c2ccc(N3CCC(OCc4c(-c5ccccc5C(F)(F)F)noc4C4CC4)CC3)cc2F)no1",
    "pEC50": 9.71
  },
  {
    "compound": "O=c1[nH]c(-c2ccc(N3C4CCC3CC(OCc3c(-c5ccccc5OC(F)F)noc3C3CC3)C4)cc2F)no1 (stereo not shown)",
    "pEC50": 9.14
  },
  {
    "compound": "O=c1[nH]c(-c2ccc(N3CCC(OCc4c(-c5ccccc5OC(F)(F)F)noc4C4CC4)CC3)nc2)no1",
    "pEC50": 9.60
  },
  {
    "compound": "O=c1[nH]c(-c2ccc(N3C4CCC3CC(OCc3c(-c5ccccc5OC(F)(F)F)noc3C3CC3)C4)cc2F)no1 (stereo not shown)",
    "pEC50": 9.52
  },
  {
    "compound": "Cc1cc(-c2noc(=O)[nH]2)ccc1N1CCC(OCc2c(-c3c(Cl)cccc3Cl)noc2C2CC2)CC1",
    "pEC50": 8.52
  },
  {
    "compound": "O=c1[nH]c(-c2ccc(N3CCC(OCc4c(-c5ccccc5OC(F)(F)F)noc4C4CC4)CC3)cc2F)no1",
    "pEC50": 9.03
  },
  {
    "compound": "O=c1[nH]c(-c2ccc(N3C4CCC3CC(OCc3c(-c5ccccc5OC(F)F)noc3C3CC3)C4)nc2)no1 (stereo not shown)",
    "pEC50": 8.83
  },
  {
    "compound": "O=c1[nH]c(-c2ccc(N3CCC(OCc4c(-c5ccccc5C(F)(F)F)noc4C4CC4)CC3)nc2)no1",
    "pEC50": 8.88
  },
  {
    "compound": "O=c1[nH]c(-c2ccc(N3C4CCC3CC(OCc3c(-c5c(Cl)cccc5Cl)noc3C3CC3)C4)cc2)no1 (stereo not shown)",
    "pEC50": 8.22
  },
  {
    "compound": "O=c1[nH]c(-c2c(F)cc(N3CCC(OCc4c(-c5ccccc5C(F)(F)F)noc4C4CC4)CC3)cc2F)no1",
    "pEC50": 9.92
  },
  {
    "compound": "O=c1[nH]c(-c2ccc(N3CCC(OCc4c(-c5ccccc5OC(F)(F)F)noc4C4CC4)CC3)c(F)c2)no1",
    "pEC50": 9.21
  },
  {
    "compound": "O=c1[nH]c(-c2c(F)cc(N3CCC(OCc4c(-c5c(Cl)cccc5Cl)noc4C4CC4)CC3)cc2F)no1",
    "pEC50": 9.52
  },
  {
    "compound": "Cc1ccccc1-c1noc(C2CC2)c1COC1CC2CCC(C1)N2c1ccc(-c2noc(=O)[nH]2)cn1 (stereo not shown)",
    "pEC50": 8.68
  },
  {
    "compound": "O=c1[nH]c(-c2ccc(N3CCC(OCc4c(-c5ccccc5OC(F)(F)F)noc4C4CC4)CC3)cc2)no1",
    "pEC50": 8.40
  },
  {
    "compound": "O=c1[nH]c(-c2ccc(N3C4CCC3CC(OCc3c(-c5ccccc5C(F)(F)F)noc3C3CC3)C4)cc2F)no1 (stereo not shown)",
    "pEC50": 9.55
  },
  {
    "compound": "O=c1[nH]c(-c2ccc(N3C4CCC3CC(OCc3c(-c5ccccc5OC(F)(F)F)noc3C3CC3)C4)nc2)no1 (stereo not shown)",
    "pEC50": 9.41
  },
  {
    "compound": "O=c1[nH]c(-c2cccc(N3CCC(OCc4c(-c5c(Cl)cccc5Cl)noc4C4CC4)C3)c2)no1 (stereo not shown)",
    "pEC50": 6.07
  },
  {
    "compound": "O=c1[nH]c(-c2ccc(N3C4CCC3CC(OCc3c(-c5c(F)cccc5F)noc3C3CC3)C4)cc2F)no1 (stereo not shown)",
    "pEC50": 9.50
  }
]
